Items are presented alongside their recorded kon.
# Test system: T1, histidine-tagged human Siglec-7 (NovoProtein) (human, UniProt Q9Y286 19-353)
# T1 construct: Bought protein; also called recombinant human Siglec-7; recombinant Siglec-7; not shown: histidine tag
# T1 sequence (Q9Y286 19-353 limits assumed): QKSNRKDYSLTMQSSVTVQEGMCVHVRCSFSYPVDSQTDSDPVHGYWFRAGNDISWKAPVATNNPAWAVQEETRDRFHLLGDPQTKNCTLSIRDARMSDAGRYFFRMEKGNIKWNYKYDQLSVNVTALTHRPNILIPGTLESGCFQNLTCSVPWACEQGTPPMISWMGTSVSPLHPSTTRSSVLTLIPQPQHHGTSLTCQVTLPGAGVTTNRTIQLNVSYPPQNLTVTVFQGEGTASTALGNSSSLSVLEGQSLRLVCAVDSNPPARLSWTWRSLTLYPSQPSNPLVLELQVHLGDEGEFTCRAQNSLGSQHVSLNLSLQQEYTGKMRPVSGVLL
# Assay details: BLI, antibody captured

See these solved cases before continuing.
INSERT INTO assay_data (binder, endpoint, reported_measurement) VALUES
  ('S7AB-H8 (antibody, V domains shown, also called parental humanized antibody) VH: QVQLVQSGAEVKKPGASVKISCKASGYAFTNCWMNWVRQAPGQGLEWIGRIFPGNGHTNYAQKFQGRATLTEDTSTSTAYMELSSLRSEDTAVYYCARDYSDYYFDYWGQGTLVTVSS VL: DIQMTQSPSSLSASVGDRVTITCRASQDINTYLNWYQQKPGKAPKLLIYYTSRLHSGVPSRFSGSGSGTDYTLTISSLQPEDFATYYCQQGNTLPWTFGQGTKLEIK', 'kon', '166000 M⁻¹ s⁻¹'),
  ('S7AB-H8.32 (antibody, V domains shown) VH: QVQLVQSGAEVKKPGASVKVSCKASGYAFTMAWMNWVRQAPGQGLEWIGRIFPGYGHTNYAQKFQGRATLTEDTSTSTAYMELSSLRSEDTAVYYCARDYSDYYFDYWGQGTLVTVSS VL: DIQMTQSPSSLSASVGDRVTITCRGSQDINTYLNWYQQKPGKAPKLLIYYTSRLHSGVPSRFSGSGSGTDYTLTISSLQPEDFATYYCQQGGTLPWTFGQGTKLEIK', 'kon', '111000 M⁻¹ s⁻¹'),
  ('S7AB-H8.24 (antibody, V domains shown) VH: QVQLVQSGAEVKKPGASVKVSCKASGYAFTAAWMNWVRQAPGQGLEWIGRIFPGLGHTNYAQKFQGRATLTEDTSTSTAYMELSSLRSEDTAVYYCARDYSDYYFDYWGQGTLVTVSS VL: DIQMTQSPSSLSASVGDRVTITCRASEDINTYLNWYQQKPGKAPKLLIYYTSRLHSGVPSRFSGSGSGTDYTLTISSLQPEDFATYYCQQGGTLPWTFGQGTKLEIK', 'kon', '131000 M⁻¹ s⁻¹'),
  ('S7AB-H8.13 (antibody, V domains shown) VH: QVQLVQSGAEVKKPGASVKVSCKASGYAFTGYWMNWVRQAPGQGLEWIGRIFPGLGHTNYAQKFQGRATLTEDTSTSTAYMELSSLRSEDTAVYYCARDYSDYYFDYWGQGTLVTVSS VL: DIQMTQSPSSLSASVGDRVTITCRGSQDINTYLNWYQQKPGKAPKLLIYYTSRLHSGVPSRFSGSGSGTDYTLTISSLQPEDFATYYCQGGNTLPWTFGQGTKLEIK', 'kon', '8500 M⁻¹ s⁻¹');

Now take the following binder into account.
Q) Quick one: give measured kon for S7AB-H8.38 (antibody, V domains shown) VH: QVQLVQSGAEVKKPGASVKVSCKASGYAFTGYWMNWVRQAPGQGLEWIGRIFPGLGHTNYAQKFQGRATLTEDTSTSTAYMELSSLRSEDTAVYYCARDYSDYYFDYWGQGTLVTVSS VL: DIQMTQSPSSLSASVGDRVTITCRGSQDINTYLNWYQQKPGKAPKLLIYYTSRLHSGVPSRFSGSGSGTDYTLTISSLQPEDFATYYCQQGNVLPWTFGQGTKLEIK
A) 229000 M⁻¹ s⁻¹
